The origin of these recorded values is PubChem BioAssay AID1918999.

test system: 556581-035-R-J1-PDC complex spheroid growth; assay: Anticancer human tumor 556581-035-R-J1-PDC patient-derived ovarian carcinoma cell line growth inhibition [AhR]; details: curve of first compound; second compound 3.16 µM
reported_property: IC50

Give its IC50 value. Item: CC1COCCN1c1cc(-c2ccnn2C)c2ccnc(-c3ccn[nH]3)c2n1 (stereo unspecified) + CC(CO)NC(=O)c1cc(-c2ccc(Cl)cc2)nn(-c2cnn(C)c2)c1=O
398 nM

Then Nc1ncn(C2CC(O)C(CO)O2)c(=O)n1 (stereo unspecified) + Cc1ccccc1N=Nc1ccc(NC(=O)c2ccnn2C)c(C)c1 ?
> 1000 nM

Then Nc1ncn(C2CC(O)C(CO)S2)c(=O)n1 (stereo unspecified) + Cc1cncc(-c2nc(NCCc3c[nH]c4ccccc34)c3ncn(C(C)C)c3n2)c1 ?
> 300 nM

Then O=C(c1cc(Cc2n[nH]c(=O)c3ccccc23)ccc1F)N1CCN(C(=O)C2CC2)CC1 + Cc1cncc(-c2nc(NCCc3c[nH]c4ccccc34)c3ncn(C(C)C)c3n2)c1 ?
> 10000 nM

Then Cn1ncnc1C1c2n[nH]c(=O)c3cc(F)cc(c23)NC1c1ccc(F)cc1 (stereo unspecified) + Cc1cncc(-c2nc(NCCc3c[nH]c4ccccc34)c3ncn(C(C)C)c3n2)c1 ?
> 100 nM

Then COc1ccc([C@@H](O)c2cc(-c3ncnc4cc(N5CCOCC5)ccc34)c(F)cc2Cl)nn1 + Cc1ccccc1N=Nc1ccc(NC(=O)c2ccnn2C)c(C)c1 ?
5110 nM
